Reference source: patent US20240325555A1

Target: T1, human LIV-1 (human, UniProt Q13433 29-755)
T1 construct: whole, on cells; also called H-LIV1
T1 sequence (looked up): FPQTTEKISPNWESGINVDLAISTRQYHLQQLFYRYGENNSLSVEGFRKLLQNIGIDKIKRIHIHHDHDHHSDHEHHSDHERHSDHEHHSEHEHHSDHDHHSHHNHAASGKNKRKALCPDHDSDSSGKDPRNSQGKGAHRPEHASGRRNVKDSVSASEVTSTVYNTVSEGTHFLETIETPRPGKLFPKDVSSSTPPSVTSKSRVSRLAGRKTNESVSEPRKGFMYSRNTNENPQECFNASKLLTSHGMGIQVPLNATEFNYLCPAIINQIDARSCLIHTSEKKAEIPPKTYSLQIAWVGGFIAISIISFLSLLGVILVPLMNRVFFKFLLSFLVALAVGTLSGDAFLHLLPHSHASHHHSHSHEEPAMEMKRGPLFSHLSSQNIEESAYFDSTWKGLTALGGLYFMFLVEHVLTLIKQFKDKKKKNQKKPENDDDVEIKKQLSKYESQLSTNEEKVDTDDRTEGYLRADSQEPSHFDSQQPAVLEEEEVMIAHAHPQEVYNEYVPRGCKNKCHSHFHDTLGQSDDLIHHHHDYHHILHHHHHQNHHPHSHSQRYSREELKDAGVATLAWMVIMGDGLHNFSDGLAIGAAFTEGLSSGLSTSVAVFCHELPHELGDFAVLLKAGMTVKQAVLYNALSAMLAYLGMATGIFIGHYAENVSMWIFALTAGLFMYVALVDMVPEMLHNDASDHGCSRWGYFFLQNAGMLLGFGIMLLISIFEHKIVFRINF
Experiment: FACS, HEK293/H_LIV-1 cells
property_label: Top (MFI)
Return type: number; implicit unit MFI.

binder	units_text	Top (MFI)
5D6B10.z7-Eribulin (antibody, V domains shown, Eribulin drug moiety conjugated; site and chain not stated, Antibody-drug conjugate of 5D6B10.z7; human gamma 1/kappa) VH: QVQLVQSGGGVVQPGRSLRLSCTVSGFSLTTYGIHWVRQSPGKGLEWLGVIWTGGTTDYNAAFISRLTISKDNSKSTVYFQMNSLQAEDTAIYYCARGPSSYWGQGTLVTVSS VL: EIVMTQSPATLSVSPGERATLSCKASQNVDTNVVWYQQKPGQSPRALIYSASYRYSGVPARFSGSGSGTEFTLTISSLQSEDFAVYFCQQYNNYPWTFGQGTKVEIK	MFI	98700

Okay, next one:
Summary for this binder, 5D6B10.z7-MMAE (antibody, V domains shown, MMAE drug moiety conjugated; site and chain not stated, Antibody-drug conjugate of 5D6B10.z7; human gamma 1/kappa) VH: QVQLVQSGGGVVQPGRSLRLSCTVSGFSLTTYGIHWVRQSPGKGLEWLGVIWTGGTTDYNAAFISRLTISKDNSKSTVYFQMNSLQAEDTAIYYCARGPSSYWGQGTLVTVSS VL: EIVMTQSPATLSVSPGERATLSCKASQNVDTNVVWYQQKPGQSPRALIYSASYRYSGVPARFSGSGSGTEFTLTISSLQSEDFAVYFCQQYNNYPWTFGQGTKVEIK : Top (MFI) is 96400
